So I've got a bunch of binders here, and I need their kon values.
- TARGET_OR_SYSTEM: human FLT3 (hFLT3) (human) (UniProt P36888)
- Sequence (P36888 27-543 limits assumed): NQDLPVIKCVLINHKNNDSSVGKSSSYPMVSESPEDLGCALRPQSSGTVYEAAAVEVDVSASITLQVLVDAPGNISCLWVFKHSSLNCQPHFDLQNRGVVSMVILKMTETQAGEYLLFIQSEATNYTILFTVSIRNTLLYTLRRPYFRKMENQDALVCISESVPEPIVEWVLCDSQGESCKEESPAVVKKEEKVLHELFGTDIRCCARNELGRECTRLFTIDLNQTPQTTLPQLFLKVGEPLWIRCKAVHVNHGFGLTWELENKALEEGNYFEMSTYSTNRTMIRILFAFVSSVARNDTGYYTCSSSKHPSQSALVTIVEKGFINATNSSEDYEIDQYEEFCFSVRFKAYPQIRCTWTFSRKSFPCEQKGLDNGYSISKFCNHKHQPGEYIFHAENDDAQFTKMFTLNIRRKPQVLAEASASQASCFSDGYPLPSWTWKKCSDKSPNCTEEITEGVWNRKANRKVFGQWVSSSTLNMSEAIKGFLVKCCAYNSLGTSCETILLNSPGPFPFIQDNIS
- METHOD_NOTES: SPR, Table 6, scFv format; set-up and antigen species not described

Report measured kon; entry is P9F1 (scFv format) (scFv, part only; not given: linker, domain order, tags, V domains shown, not shown: another chain or arm of the molecule; small tags and cut ends) VH: EVQLLESGGGLVQPGGSLRLSCAASGFIFSSFAMSWVRQAPGKGLEWVSDISGSGASTYYADSVKGRFTISRDNSKNTLYLQMNSLRAEDTAVYYCASASGGSGSYWPYMDPWGQGTLVTVSS VL: QSVLTQPPSASGTPGQRVTISCSGSGSNIGSNYVYWYQQLPGTAPKLLIYRNNQRPSGVPDRFSGSKSGTSASLAISGLRSEDEADYYCAAWDGSLSRPVFGTGTKLTVL
226000 M⁻¹ s⁻¹

Please give measured kon of the following entry: P4C7 (scFv format) (scFv, part only; not given: linker, domain order, tags, V domains shown, not shown: another chain or arm of the molecule; small tags and cut ends) VH: QVQLVQSGAEVKKPGSSVKVSCKASGGTFSSYTISWVRQAPGQGLEWMGGIIPAFGIANYAQKFQGRVTITADKSTSTAYMELSSLRSEDTAVYYCAKGGSYSLDYFDIWGQGTLVTVSS VL: EIVLTQSPGTLSLSPGERATLSCRASQYVSASLLAWYQQKPGQAPRLLIYGASTRATGIPDRFSGSGSGTDFTLTISRLEPEDFAVYYCQQYARSSTFGQGTKVEIK
121000 M⁻¹ s⁻¹

The measured values listed here are drawn from patent US20230059489A1.
